From: paper PMC3692342

assay name: Pharmacokinetic study in rabbits
Format: in vivo, New Zealand White rabbits
assay context: New Zealand White, rabbit, plasma, ip, 10 mg/kg
measurement type: half-life (h)
Supply the numeric figure in h, leaving out any unit text.

Prompt line: Return reported half-life; argument: CC1=CC(=O)C(C(C)C)=CC1=O [Thymoquinone, thymoquinone]
Response line: 4.49

----------
assay name: Pharmacokinetic study in rabbits
Format: in vivo, New Zealand White rabbits
assay context: New Zealand White, rabbit, plasma, ip, 10 mg/kg
measurement type: Cmax
Output should be the measured figure followed by the unit it is expressed in.

Prompt line: Return reported Cmax; argument: CC1=CC(=O)C(C(C)C)=CC1=O
Response line: 4810 ng/mL
